test: Cortex versus plasma half-life of Compound 100 after 4 days of 100 mg/kg PO dosing (Example 11); format: in vivo, male Sprague-Dawley rats; details: male, Sprague-Dawley, rat, cortex; 100 mg/kg PO once per day for 4 days; read-out: half-life (T1/2) in the cortex (converted)
Measured Parameter: half-life

GET /value?item= [2H][C@@](N)(CO)C(=O)O [Compound 100] &field=half-life returns ~48 h

----------
experiment: Brain distribution of Compound 100 after a single 100 mg/kg PO dose (Example 10); format: in vivo, male Sprague-Dawley rats; settings: male, Sprague-Dawley, rat, cortex, mean, perfused brain, read-out: cortex concentration
Measured Parameter: concentration at 24 h (ng/g)
Numbers only; they are read as ng/g.

GET /value?item= `[2H][C@@](N)(CO)C(=O)O` &field=concentration at 24 h returns 4660

----------
assay: Pharmacokinetics dose response of non-deuterated D-serine, 30-300 mg/kg PO (Example 4); format: in vivo, male Sprague-Dawley rats; details: male, Sprague-Dawley, rat, plasma, po, 300 mg/kg, 300 mg/kg PO
Measured Parameter: Tmax (min)
Numbers only; they are read as min.

GET /value?item= `N[C@H](CO)C(=O)O` &field=Tmax returns 30

----------
test: Pharmacokinetics dose response of non-deuterated D-serine, 30-300 mg/kg PO (Example 4); type: in vivo, male Sprague-Dawley rats; conditions: male, Sprague-Dawley, rat, plasma, po, 30 mg/kg, 30 mg/kg PO
Measured Parameter: Tmax (min)
Numbers only; they are read as min.

GET /value?item= N[C@H](CO)C(=O)O [Non-deuterated D-Serine, D-serine] &field=Tmax returns 30

----------
Experiment: Pharmacokinetics of non-deuterated D-serine after a 300 mg/kg PO dose (Example 2)
Type: in vivo, Male Sprague-Dawley Rats
Conditions: male, Sprague-Dawley, rat; plasma, 300 mg/kg PO
Protocol: The hippocampus, cortex and plasma were collected and analyzed. Additional blood was collected and were analyzed for the full clinical chemistry profile. Urine was also collected and examined for glucose and total protein. […] The mean plasma, hippocampus, and cortex concentration at 1 hour are 19200 ng/mL, 674 ng/g, and 754 ng/g; respectively. The mean plasma, hippocampus, and cortex concentrations at 8 hours were 11250 ng/mL, 17725 ng/g, and 11875 ng/g, respectively. […]
Measured Parameter: AUC(0-inf) (µg·h/mL)
Numbers only; they are read as µg·h/mL.

GET /value?item= N[C@H](CO)C(=O)O [Non-deuterated D-Serine, D-serine] &field=AUC(0-inf) returns 500

----------
experiment: Pharmacokinetics dose response of non-deuterated D-serine, 30-300 mg/kg PO (Example 4); type: in vivo, male Sprague-Dawley rats; settings: male, Sprague-Dawley, rat, plasma, po, 75 mg/kg, 75 mg/kg PO, (CV %), read-out: Cmax
Measured Parameter: Cmax (µg/mL)
Numbers only; they are read as µg/mL.

GET /value?item= `N[C@H](CO)C(=O)O` &field=Cmax returns 54.3

----------
test: Brain distribution of Compound 100 after a single 100 mg/kg PO dose (Example 10); assay type: in vivo, male Sprague-Dawley rats; conditions: male, Sprague-Dawley, rat, plasma, mean, read-out: plasma concentration
Measured Parameter: concentration at 24 h

GET /value?item= `[2H][C@@](N)(CO)C(=O)O` &field=concentration at 24 h returns 880 ng/mL

----------
test: Pharmacokinetics dose response of non-deuterated D-serine, 30-300 mg/kg PO (Example 4); assay type: in vivo, male Sprague-Dawley rats; settings: male, Sprague-Dawley, rat; plasma, 75 mg/kg PO, (CV %)
Measured Parameter: AUC(0-inf) (µg·h/mL)
Numbers only; they are read as µg·h/mL.

GET /value?item= `N[C@H](CO)C(=O)O` &field=AUC(0-inf) returns 148

----------
assay: Pharmacokinetic profile of Compound 100 and non-deuterated D-serine after 150 mg/kg PO doses (Example 3); assay type: in vivo, male Sprague-Dawley rats; conditions: male, Sprague-Dawley, rat, cortex, po, 150 mg/kg, mean, 24 hr, read-out: Cortex concentration
Measured Parameter: concentration at 24 h (ng/g)
Numbers only; they are read as ng/g.

GET /value?item= [2H][C@@](N)(CO)C(=O)O [Compound 100] &field=concentration at 24 h returns 2420

----------
experiment: Pharmacokinetics dose response of non-deuterated D-serine, 30-300 mg/kg PO (Example 4); format: in vivo, male Sprague-Dawley rats; conditions: male, Sprague-Dawley, rat, plasma, po, 150 mg/kg, 150 mg/kg PO, (CV %), read-out: Cmax
Measured Parameter: Cmax (µg/mL)
Numbers only; they are read as µg/mL.

GET /value?item= `N[C@H](CO)C(=O)O` &field=Cmax returns 180

----------
assay: Pharmacokinetic profile of Compound 100 and non-deuterated D-serine after 150 mg/kg PO doses (Example 3); type: in vivo, male Sprague-Dawley rats; details: male, Sprague-Dawley, rat, plasma, po, 150 mg/kg, mean, 4 hr, read-out: Plasma concentration
Measured Parameter: concentration at 4 h (ng/mL)
Numbers only; they are read as ng/mL.

GET /value?item= [2H][C@@](N)(CO)C(=O)O [Compound 100] &field=concentration at 4 h returns 23300

----------
test: Pharmacokinetics dose response of non-deuterated D-serine, 30-300 mg/kg PO (Example 4); format: in vivo, male Sprague-Dawley rats; conditions: male, Sprague-Dawley, rat, plasma, po, 30 mg/kg, 30 mg/kg PO, (CV %), read-out: Cmax
Measured Parameter: Cmax (ng/mL)
Numbers only; they are read as ng/mL.

GET /value?item= `N[C@H](CO)C(=O)O` &field=Cmax returns 24300

----------
experiment: Pharmacokinetic profile of Compound 100 and non-deuterated D-serine after 150 mg/kg PO doses (Example 3); assay type: in vivo, male Sprague-Dawley rats; settings: male, Sprague-Dawley, rat, plasma
Measured Parameter: AUC(0-inf)

[2H][C@@](N)(CO)C(=O)O [Compound 100] : 383 µg·h/mL

Next, consider the following compound.
GET /value?item= N[C@H](CO)C(=O)O [Non-deuterated D-Serine, D-serine] &field=AUC(0-inf) returns 349 µg·h/mL

----------
test: Pharmacokinetics of non-deuterated D-serine after a 300 mg/kg PO dose (Example 2); type: in vivo, Male Sprague-Dawley Rats; conditions: male, Sprague-Dawley, rat, hippocampus, oral, 300 mg/kg; mean, 1 hour (in Example 2); read-out: Hippocampus concentration
Measured Parameter: concentration at 1 h (ng/g)
Numbers only; they are read as ng/g.

GET /value?item= `N[C@H](CO)C(=O)O` &field=concentration at 1 h returns 674

----------
test: Plasma, hippocampus and cortex concentration of Compound 100 after a 30 mg/kg PO dose (Example 1); assay type: in vivo, male Sprague Dawley rats; conditions: male, Sprague-Dawley, rat, cortex, mean, 1 hr, read-out: Cortex concentration
Measured Parameter: concentration at 1 h (ng/g)
Numbers only; they are read as ng/g.

GET /value?item= `[2H][C@@](N)(CO)C(=O)O` &field=concentration at 1 h returns 754

----------
test: Plasma, hippocampus and cortex concentration of Compound 100 after a 30 mg/kg PO dose (Example 1); assay type: in vivo, male Sprague Dawley rats; conditions: male, Sprague-Dawley, rat, hippocampus, mean, 1 hr, read-out: Hippocampus concentration
Measured Parameter: concentration at 1 h (ng/g)
Numbers only; they are read as ng/g.

GET /value?item= `[2H][C@@](N)(CO)C(=O)O` &field=concentration at 1 h returns 674

----------
assay: Pharmacokinetics of non-deuterated D-serine after a 300 mg/kg PO dose (Example 2); type: in vivo, Male Sprague-Dawley Rats; conditions: male, Sprague-Dawley, rat, cortex; mean, 300 mg/kg PO, 8 hr; read-out: Cortex concentration
Measured Parameter: concentration at 8 h (ng/g)
Numbers only; they are read as ng/g.

GET /value?item= `N[C@H](CO)C(=O)O` &field=concentration at 8 h returns 11900

----------
assay: Pharmacokinetics dose response of non-deuterated D-serine, 30-300 mg/kg PO (Example 4); assay type: in vivo, male Sprague-Dawley rats; conditions: male, Sprague-Dawley, rat, plasma, po, 100 mg/kg, 100 mg/kg PO
Measured Parameter: Tmax (min)
Numbers only; they are read as min.

GET /value?item= `N[C@H](CO)C(=O)O` &field=Tmax returns 30

----------
experiment: Plasma, hippocampus and cortex concentration of Compound 100 after a 30 mg/kg PO dose (Example 1); type: in vivo, male Sprague Dawley rats; settings: male, Sprague-Dawley, rat, cortex, mean, 6 hr, read-out: Cortex concentration
Measured Parameter: concentration at 6 h (ng/g)
Numbers only; they are read as ng/g.

GET /value?item= `[2H][C@@](N)(CO)C(=O)O` &field=concentration at 6 h returns 936

----------
test: Pharmacokinetic profile of Compound 100 and non-deuterated D-serine after 150 mg/kg PO doses (Example 3); assay type: in vivo, male Sprague-Dawley rats; details: male, Sprague-Dawley, rat, hippocampus, po, 150 mg/kg, mean, 4 hr, read-out: Hippocampus concentration
Measured Parameter: concentration at 4 h
I'd appreciate it if you included the unit after the number.

GET /value?item= `[2H][C@@](N)(CO)C(=O)O` &field=concentration at 4 h returns 6160 ng/g

Ref: patent US20200368193A1
